System: Lactobacillus crispatus 262-1
Assay: Antibiotic sensitivity test, agar-diffusion paper-disc method; note: test concentration or dose not given here
Type: cell-based
Conditions: T50 generation of the strain; paper content/sheet per antibiotic as in Table 3
REPORTED_PROPERTY: Inhibition zone diameter (mm)
Use mm as the unit, but write only the number.

Here is how some molecules turned out for Inhibition zone diameter.
- SMILES_STRING: "Cc1onc(-c2ccccc2)c1C(=O)N[C@@H]1C(=O)N2[C@@H]1SC(C)(C)[C@@H]2C(=O)O"
  REPORTED_PROPERTY: "Inhibition zone diameter"
  UOM: "mm"
  NUMERIC_VALUE: 9
- SMILES_STRING: "CC[C@H]1OC(=O)[C@H](C)[C@@H](O[C@H]2C[C@@](C)(OC)[C@@H](O)[C@H](C)O2)[C@H](C)[C@@H](O[C@@H]2O[C@H](C)C[C@H](N(C)C)[C@H]2O)[C@](C)(O)C[C@@H](C)C(=O)[C@H](C)[C@@H](O)[C@]1(C)O"
  REPORTED_PROPERTY: "Inhibition zone diameter"
  UOM: "mm"
  NUMERIC_VALUE: 39
- SMILES_STRING: "CCN1CCN(C(=O)N[C@@H](C(=O)N[C@@H]2C(=O)N3[C@@H]2SC(C)(C)[C@@H]3C(=O)O)c2ccccc2)C(=O)C1=O"
  REPORTED_PROPERTY: "Inhibition zone diameter"
  UOM: "mm"
  NUMERIC_VALUE: 35

Consider the record given below.
Data request, read-out Inhibition zone diameter, for "Cc1ncc([N+](=O)[O-])n1CCO" 0
